B1: NR2F2 (parent)
chain: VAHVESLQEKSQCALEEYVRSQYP

# Variants of: B1
# Test: protein stability index of a GFP-peptide fusion (GPS, HEK-293T) (PSI 1-6); higher = more stable;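 note: lentivirally expressed fusions sorted by FACS into six bins by GFP to DsRed ratio, PSI derived from sequencing read proportions per bin multiplied by bin number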
# Test Context: c terminus: a fixed tail appended

>  <Variant Description>
E5K

>  <protein stability index>
2.96

$$$$
>  <Variant Description>
Y23Q

>  <protein stability index>
4.25

$$$$
>  <Variant Description>
Q12P

>  <protein stability index>
3.12

$$$$
>  <Variant Description>
Q12I

>  <protein stability index>
2.49

$$$$
>  <Variant Description>
K10F

>  <protein stability index>
2.08

$$$$
>  <Variant Description>
K10D

>  <protein stability index>
4.32

$$$$
>  <Variant Description>
S6V

>  <protein stability index>
3.33

$$$$
>  <Variant Description>
S6N

>  <protein stability index>
3.53

$$$$
>  <Variant Description>
Q22R

>  <protein stability index>
3.05

$$$$
>  <Variant Description>
Q12C

>  <protein stability index>
2.45

$$$$
>  <Variant Description>
S11M

>  <protein stability index>
2.54

$$$$
>  <Variant Description>
R20C

>  <protein stability index>
3.87

$$$$
>  <Variant Description>
V4C

>  <protein stability index>
3.81

$$$$
>  <Variant Description>
Y23F

>  <protein stability index>
3.43

$$$$
>  <Variant Description>
S11K

>  <protein stability index>
3.41

$$$$
>  <Variant Description>
Y18E

>  <protein stability index>
4.7

$$$$
>  <Variant Description>
S6P

>  <protein stability index>
2.94

$$$$
>  <Variant Description>
A14N

>  <protein stability index>
4.22

$$$$
>  <Variant Description>
Q12W

>  <protein stability index>
2.64

$$$$
>  <Variant Description>
E17K

>  <protein stability index>
3.81

$$$$
>  <Variant Description>
L15F

>  <protein stability index>
3.48

$$$$
>  <Variant Description>
A2D

>  <protein stability index>
3.85

$$$$

Source: the supplement of paper PMC10567573
